test: self-splicing fitness, log relative to wild type (ln ratio); higher = more splicing; Tetrahymena group I intron in knt gene, E. coli kanamycin selection, DiMSum; sequences stand for … in CUCUCU…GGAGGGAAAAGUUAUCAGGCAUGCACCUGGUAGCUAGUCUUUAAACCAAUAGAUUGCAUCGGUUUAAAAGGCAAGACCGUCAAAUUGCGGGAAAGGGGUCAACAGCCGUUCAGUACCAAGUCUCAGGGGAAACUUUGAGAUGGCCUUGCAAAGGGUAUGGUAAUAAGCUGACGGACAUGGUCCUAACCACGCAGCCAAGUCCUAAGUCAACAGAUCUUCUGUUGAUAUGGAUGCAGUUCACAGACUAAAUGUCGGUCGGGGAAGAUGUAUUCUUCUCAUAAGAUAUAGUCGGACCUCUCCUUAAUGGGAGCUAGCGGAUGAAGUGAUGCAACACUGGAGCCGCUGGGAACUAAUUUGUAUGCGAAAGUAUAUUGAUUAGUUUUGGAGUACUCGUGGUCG; conditions: 30 °C;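 also: selection with 25 µg/mL kanamycin versus none on LB agar overnight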
Binary classification by self-splicing fitness (ln), with -2 as an inclusive lower bound for 1 (yes); all other cases are 0 (no).

Query block: Reported self-splicing fitness (ln) at or above -2? GCCUAGCAAUAUUACGGCAC
Result block: 1 (yes)

Query block: Reported self-splicing fitness (ln) at or above -2? CGAUAGCAAUAUUACGUGCU
Result block: 0 (no)

Query block: Reported self-splicing fitness (ln) at or above -2? GCCCAGCAAUAUUACGGUGU
Result block: 0 (no)

Query block: Reported self-splicing fitness (ln) at or above -2? AUCAAGCAAUAUUACGUCGU
Result block: 1 (yes)

Query block: Reported self-splicing fitness (ln) at or above -2? UUGCAGCAAUAUUACGACUG
Result block: 0 (no)

Query block: Reported self-splicing fitness (ln) at or above -2? GUUUAGCAAUAUUACGGUAC
Result block: 1 (yes)

Query block: Reported self-splicing fitness (ln) at or above -2? GGGCAGCAAUAUUACGGCGC
Result block: 1 (yes)

Query block: Reported self-splicing fitness (ln) at or above -2? UGUGAGCAAUAUUACGCACA
Result block: 0 (no)

Query block: Reported self-splicing fitness (ln) at or above -2? AUGCAGCAAUAUUACGACAG
Result block: 1 (yes)

Query block: Reported self-splicing fitness (ln) at or above -2? GGAAAGCAAUAUUACGCGCC
Result block: 0 (no)

Query block: Reported self-splicing fitness (ln) at or above -2? GAUAAGCAAUAUUACGGCUC
Result block: 1 (yes)

Query block: Reported self-splicing fitness (ln) at or above -2? GAACAGCAAUAUUACGUGCA
Result block: 1 (yes)

Query block: Reported self-splicing fitness (ln) at or above -2? AAGCAGCAAUAUUACGAUUG
Result block: 0 (no)

Query block: Reported self-splicing fitness (ln) at or above -2? CUGCAGCAAUAUUACGUGCC
Result block: 0 (no)

Query block: Reported self-splicing fitness (ln) at or above -2? GACCAGCAAUAUUACGGACC
Result block: 0 (no)

Query block: Reported self-splicing fitness (ln) at or above -2? GAUCAGCAAUAUUACGAGAG
Result block: 1 (yes)

###

assay: self-splicing fitness, log relative to wild type (ln ratio); higher = more splicing; Tetrahymena group I intron in knt gene, E. coli kanamycin selection, DiMSum; sequences stand for … in CUCUCU…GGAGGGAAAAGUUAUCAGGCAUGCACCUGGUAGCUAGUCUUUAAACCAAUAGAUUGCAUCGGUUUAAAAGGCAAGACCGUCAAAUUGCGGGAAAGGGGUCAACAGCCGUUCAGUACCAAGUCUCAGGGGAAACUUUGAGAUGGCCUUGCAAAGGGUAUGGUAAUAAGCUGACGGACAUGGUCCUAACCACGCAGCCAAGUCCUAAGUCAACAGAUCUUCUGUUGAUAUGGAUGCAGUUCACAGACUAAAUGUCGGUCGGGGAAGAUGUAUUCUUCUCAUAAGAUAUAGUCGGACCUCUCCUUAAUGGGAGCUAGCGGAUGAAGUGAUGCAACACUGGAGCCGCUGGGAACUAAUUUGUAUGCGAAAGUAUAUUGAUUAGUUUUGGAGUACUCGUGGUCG; settings: 37 °C
Please go through the items and note down their self-splicing fitness (ln).
Give only the figure.

According to the records, this sequence CAGCAGCAAUAUUACGUGUU displays self-splicing fitness (ln) of -2.5

According to the records, this sequence UAAAAGCAAUAUUACGUAUU displays self-splicing fitness (ln) of -1.88

According to the records, this sequence UAGUAGCAAUAUUACGGCUA displays self-splicing fitness (ln) of -0.257

According to the records, this sequence GCACAGCAAUAUUACGACGG displays self-splicing fitness (ln) of -0.832

According to the records, this sequence GACUAGCAAUAUUACGAAAA displays self-splicing fitness (ln) of -0.685

According to the records, this sequence GAGGAGCAAUAUUACGUGUA displays self-splicing fitness (ln) of -3.62

According to the records, this sequence CUAGAGCAAUAUUACGUAUC displays self-splicing fitness (ln) of -1.7

According to the records, this sequence GUCCAGCAAUAUUACGAUAG displays self-splicing fitness (ln) of -2.89
